Measured On: Recombinant human PDK1 enzyme (aa 52-556) (Homo sapiens (Human), UniProt O15530)
Sequence (O15530 52-556): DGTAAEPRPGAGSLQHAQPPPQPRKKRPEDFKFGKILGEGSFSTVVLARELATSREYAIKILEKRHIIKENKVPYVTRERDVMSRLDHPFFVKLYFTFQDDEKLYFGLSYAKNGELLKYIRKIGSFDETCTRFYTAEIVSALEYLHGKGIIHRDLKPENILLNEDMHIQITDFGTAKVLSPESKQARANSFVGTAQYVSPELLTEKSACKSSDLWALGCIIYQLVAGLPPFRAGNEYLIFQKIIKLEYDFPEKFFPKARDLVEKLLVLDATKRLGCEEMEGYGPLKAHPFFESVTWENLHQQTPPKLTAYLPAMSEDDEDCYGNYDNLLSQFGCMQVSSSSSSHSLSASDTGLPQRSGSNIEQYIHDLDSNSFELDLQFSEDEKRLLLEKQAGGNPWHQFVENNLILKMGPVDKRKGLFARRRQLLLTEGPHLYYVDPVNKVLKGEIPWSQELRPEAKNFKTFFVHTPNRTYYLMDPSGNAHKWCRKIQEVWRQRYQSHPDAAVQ
Assay Summary: PDK1 kinase assay
Condition Info: 25 μM ATP solution with gamma-P33-ATP, PDKtide substrate, 90 min at RT
Measurement Kind: pIC50
Give bare numbers, as −log10 of the molar value.

Worked set:
Cc1nc2cnc3ccc(C#CCNC(=O)c4cccn([C@@H](C)c5ccc(F)c(F)c5)c4=O)cc3c2n1[C@H]1CC[C@H](N(C)C)CC1 [III-23] | 9.00
O=C(NCC#Cc1ccc2ncc3ncn(C4CCOC4)c3c2c1)c1cccn([C@@H](CO)c2cccc(F)c2)c1=O (stereo partly shown) [III-22] | 8.15
Cc1nc2cnc3ccc(C#CCNC(=O)c4cc(Cl)nn(Cc5ccc(F)c(F)c5)c4=O)cc3c2n1CCc1ccccc1 [III-7] | 8.15

Would you kindly look at the next entry?
Param readout = pIC50; param system = Recombinant human PDK1 enzyme (aa 52-556) (Homo sapiens (Human), UniProt O15530); param query = Cc1nc2cnc3ccc(C#CCNC(=O)c4cccn(Cc5ccc(F)c(F)c5)c4=O)cc3c2n1C1CCN(C(C)C)CC1 [II-31] ; response: value
8.10

----------
Measured On: Recombinant human PDK1 enzyme (aa 52-556) (Homo sapiens (Human))
Assay Summary: PDK1 kinase assay
Condition Info: 25 μM ATP solution with gamma-P33-ATP, PDKtide substrate, 90 min at RT
Measurement Kind: IC50 (nM)
One number for each entry, in nM.

Cc1cc(C(=O)NCC#Cc2ccc3ncc4ncn([C@H]5CC[C@@H](N(C)C)CC5)c4c3c2)c(=O)n(Cc2ccc(F)c(F)c2)n1 | 15
Cc1nc2cnc3ccc(C#CCNC(=O)c4c(C)n(C)n(Cc5ccc(F)c(F)c5)c4=O)cc3c2n1C(C)C | 5
Cc1nc2cnc3ccc(C#CCNC(=O)c4cccn([C@@H](C)c5ccc(F)c(F)c5)c4=O)cc3c2n1C1CCN(C)CC1 | 2
Cc1nc2cnc3ccc(C#CCNC(=O)c4cccn([C@H](C)C5CCCCC5)c4=O)cc3c2n1C(C)C | 507

// batch mode: one IC50 value per listed entry
1. CCOc1nc2cnc3ccc(C#CCNC(=O)c4cncn(Cc5ccc(F)c(F)c5)c4=O)cc3c2n1C
2. Cn1cnc2cnc3ccc(C#CCNC(=O)c4cncn(Cc5ccc(F)c(F)c5)c4=O)cc3c21
3. Cc1nc2cnc3ccc(C#CCNC(=O)c4cccn(Cc5ccc(F)c(F)c5)c4=O)cc3c2n1C1CCN(C)CC1

[33, 5, 6]

----------
Measured On: Recombinant human PDK1 enzyme (aa 52-556) (Homo sapiens (Human))
Assay Summary: PDK1 kinase assay
Condition Info: 25 μM ATP solution with gamma-P33-ATP, PDKtide substrate, 90 min at RT
Measurement Kind: IC50
Kindly format the answer as number then unit.

CN1CC[C@H](n2cnc3cnc4ccc(C#CCNC(=O)c5cncn(Cc6ccc(F)c(F)c6)c5=O)cc4c32)C1 [I-7] | 18 nM

Give measured IC50 for every item shown.
1. CCOc1cc(C(=O)NCC#Cc2ccc3ncc4nc(C)n(C(C)C)c4c3c2)c(=O)n(Cc2ccc(F)c(F)c2)n1 [II-5]
2. CC(C)N1CCC(n2cnc3cnc4ccc(C#CCNC(=O)c5cccn(Cc6ccc(F)c(F)c6)c5=O)cc4c32)CC1 [II-35]
3. Cc1nc2cnc3ccc(C#CCNC(=O)c4cncn(Cc5ccc(F)c(F)c5)c4=O)cc3c2n1CCN(C)C [III-13]
4. Cc1nc2cnc3ccc(C#CCNC(=O)c4cccn([C@H](CO)c5cccc(F)c5)c4=O)cc3c2n1C(C)C [II-6]
5. Cc1nc2cnc3ccc(C#CCNC(=O)c4cccn(Cc5ccccc5)c4=O)cc3c2n1C(C)C [II-2]
6. CN1CC[C@@H](n2cnc3cnc4ccc(C#CCNC(=O)c5cccn(Cc6ccc(F)c(F)c6)c5=O)cc4c32)C1 [III-15]

4 nM
7 nM
53 nM
1 nM
8 nM
20 nM

Values compiled from patent US8895581B2.
